Parameter: SK Expression (% control). Scope: all listed entries.
System: streptokinase (SK)
recorded_conditions: compound conc. 0.1 μg/ml
Supply the numeric figure in % control, leaving out any unit text.

{"structure_string": "C=CCn1c(SCCOC)nc2c(c1=O)C1(CCCCC1)Cc1ccccc1-2", "tested_target": "streptokinase (SK)", "test_result": 75}

Prompt: I would be grateful if you could share the reported SK Expression (% control) for C=CCn1c(SCc2ccccn2)nc2c(c1=O)C(C)(C)Cc1ccccc1-2 .
Response: 94

Prompt: I would be grateful if you could share the reported SK Expression (% control) for C=CCn1c(SCC(N)=O)nc2c(c1=O)C(C)(C)Cc1ccccc1-2 .
Response: 96

Prompt: I would be grateful if you could share the reported SK Expression (% control) for C=CCn1c(NCC)nc2c(c1=O)C1(CCCCC1)Cc1ccccc1-2 .
Response: 96

Prompt: I would be grateful if you could share the reported SK Expression (% control) for C=CCn1c(SCCOC)nc2c(c1=O)C(C)(C)Cc1ccccc1-2 .
Response: 90

Prompt: I would be grateful if you could share the reported SK Expression (% control) for C=CCn1c(SCCO)nc2c(c1=O)C(C)(C)Cc1ccccc1-2 .
Response: 93

----------
System: SK(+)GAS
run_description: GAS growth by OD600 nm of culture
Type: cell-based, Group A Streptococcus
recorded_conditions: Streptococcus, read-out: GAS Growth (% control), compound conc. 5 μg/ml
Parameter: activity at 5 µg/mL. Scope: all listed entries.
Supply the numeric figure in %, leaving out any unit text.

{"compound": "C=CCn1c(SCc2ccc(OC)cc2)nc2c(c1=O)C1(CCCCC1)Cc1ccccc1-2", "tested_target": "SK(+)GAS", "reported_metric": "activity at 5 µg/mL", "test_result": 104}
{"compound": "C=CCn1c(SCc2ccc(NC(C)=O)cc2)nc2c(c1=O)C1(CCCCC1)Cc1ccccc1-2", "tested_target": "SK(+)GAS", "reported_metric": "activity at 5 µg/mL", "test_result": 109}
{"compound": "C=CCn1c(SCC(N)=O)nc2c(c1=O)C(C)(C)Cc1ccccc1-2", "tested_target": "SK(+)GAS", "reported_metric": "activity at 5 µg/mL", "test_result": 102}
{"compound": "C=CCn1c(SCC)nc2c(c1=O)C(C)(C)Cc1ccccc1-2", "tested_target": "SK(+)GAS", "reported_metric": "activity at 5 µg/mL", "test_result": 89}
{"compound": "C=CCn1c(NCC)nc2c(c1=O)C1(CCCCC1)Cc1ccccc1-2", "tested_target": "SK(+)GAS", "reported_metric": "activity at 5 µg/mL", "test_result": 116}
{"compound": "C=CCn1c(OCC)nc2c(c1=O)C1(CCCCC1)Cc1ccccc1-2", "tested_target": "SK(+)GAS", "reported_metric": "activity at 5 µg/mL", "test_result": 99}
{"compound": "C=CCn1c(SCCO)nc2c(c1=O)C(C)(C)Cc1ccccc1-2", "tested_target": "SK(+)GAS", "reported_metric": "activity at 5 µg/mL", "test_result": 106}
{"compound": "C=CCn1c(SCCOC)nc2c(c1=O)C(C)(C)Cc1ccccc1-2", "tested_target": "SK(+)GAS", "reported_metric": "activity at 5 µg/mL", "test_result": 93}

Prompt: I would be grateful if you could share the reported activity at 5 µg/mL for C=CCn1c(SCC#N)nc2c(c1=O)C(C)(C)Cc1ccccc1-2 .
Response: 98

Prompt: I would be grateful if you could share the reported activity at 5 µg/mL for C=CCn1c(SCCOC)nc2c(c1=O)CC(C)c1ccccc1-2 (stereo not shown) .
Response: 102

----------
Test system: SK(+)GAS
run_description: GAS growth by OD600 nm of culture
Assay type: cell-based, Group A Streptococcus
recorded_conditions: Streptococcus, read-out: GAS Growth (% control), compound conc. 5 μg/ml
reported_metric: activity at 5 µg/mL (%)
Supply the numeric figure in %, leaving out any unit text.

Worked cases, activity at 5 µg/mL given:
{"structure_string": "C=CCn1c(SC)nc2c(c1=O)C1(CCCCC1)Cc1ccccc1-2", "tested_target": "SK(+)GAS", "reported_metric": "activity at 5 µg/mL", "test_result": 104}
{"structure_string": "C=CCn1c(SCc2ccccn2)nc2c(c1=O)C(C)(C)Cc1ccccc1-2", "tested_target": "SK(+)GAS", "reported_metric": "activity at 5 µg/mL", "test_result": 100}
{"structure_string": "C=CCn1c(SCCOC)nc2c(c1=O)C(C)(C)c1ccccc1-2", "tested_target": "SK(+)GAS", "reported_metric": "activity at 5 µg/mL", "test_result": 97}

Prompt: Provide the documented activity at 5 µg/mL with SK(+)GAS as the system for C=CCn1c(SCCc2ccc(OC)cc2)nc2c(c1=O)C1(CCCCC1)Cc1ccccc1-2
Response: 106

Prompt: Provide the documented activity at 5 µg/mL with SK(+)GAS as the system for C=CCn1c(SCCOC)nc2c(c1=O)C(C)(C)Cc1cc(OC)ccc1-2
Response: 99

Prompt: Provide the documented activity at 5 µg/mL with SK(+)GAS as the system for C=CCn1c(SCCCC)nc2c(c1=O)C1(CCCCC1)Cc1ccccc1-2
Response: 101

Prompt: Provide the documented activity at 5 µg/mL with SK(+)GAS as the system for C=CCn1c(SCC(=O)OCC)nc2c(c1=O)C(C)(C)Cc1ccccc1-2
Response: 98

Prompt: Provide the documented activity at 5 µg/mL with SK(+)GAS as the system for C=CCn1c(SCc2cccc(OC)c2)nc2c(c1=O)C1(CCCCC1)Cc1ccccc1-2
Response: 102

Prompt: Provide the documented activity at 5 µg/mL with SK(+)GAS as the system for C=CCn1c(SCCOC)nc2c(c1=O)C1(CCCCC1)Cc1ccccc1-2
Response: 92

----------
System: streptokinase (SK)
recorded_conditions: compound conc. 40 μg/ml
Parameter: SK Expression (% control). Scope: all listed entries.
Field: value (include unit after the number)

{"compound": "C=CCn1c(SCC)nc2c(c1=O)C(C)(C)Cc1ccccc1-2 [1S-26137]", "test_result": "19 % control"}
{"compound": "C=CCn1c(SCCc2ccc(OC)cc2)nc2c(c1=O)C1(CCCCC1)Cc1ccccc1-2 [CCG-102489]", "test_result": "79 % control"}
{"compound": "CCn1c(SCc2ccccc2)nc2c(c1=O)C1(CCCC1)Cc1ccccc1-2 [AK968]", "test_result": "54 % control"}
{"compound": "C=CCn1c(SCCOC)nc2c(c1=O)C(C)(C)Cc1cc(OC)ccc1-2 [CCG-203576]", "test_result": "11 % control"}

Prompt: I would be grateful if you could share the reported SK Expression (% control) for C=CCn1c(SCc2ccc(OC)cc2)nc2c(c1=O)C1(CCCCC1)Cc1ccccc1-2 [CCG-102483] .
Response: 80 % control

----------
Parameter: SK Expression (% control). Scope: all listed entries.
System: streptokinase (SK)
recorded_conditions: compound conc. 3 μg/ml
Supply the numeric figure in % control, leaving out any unit text.

{"structure_string": "C=CCn1c(SCCOC)nc2c(c1=O)C(C)(C)Cc1ccccc1-2", "measurement_units": "% control", "SK Expression (% control)": 35}
{"structure_string": "C=CCn1c(SCc2ccccn2)nc2c(c1=O)C(C)(C)Cc1ccccc1-2", "measurement_units": "% control", "SK Expression (% control)": 58}

Prompt: I would be grateful if you could share the reported SK Expression (% control) for C=CCn1c(SCC(N)=O)nc2c(c1=O)C(C)(C)Cc1ccccc1-2 .
Response: 94

Prompt: I would be grateful if you could share the reported SK Expression (% control) for C=CCn1c(NCC)nc2c(c1=O)C1(CCCCC1)Cc1ccccc1-2 .
Response: 62

Prompt: I would be grateful if you could share the reported SK Expression (% control) for C=CCn1c(SCCOC)nc2c(c1=O)C1(CCCCC1)Cc1ccccc1-2 .
Response: 51

Prompt: I would be grateful if you could share the reported SK Expression (% control) for C=CCn1c(SCCO)nc2c(c1=O)C(C)(C)Cc1ccccc1-2 .
Response: 87

----------
System: streptokinase (SK)
recorded_conditions: compound conc. 5 μg/ml
reported_metric: SK Expression (% control)
Supply the numeric figure in % control, leaving out any unit text.

Worked cases, SK Expression (% control) given:
{"compound": "C=CCn1c(SCC)nc2c(c1=O)C(C)(C)Cc1ccccc1-2 [1S-26137]", "SK Expression (% control)": 21}
{"compound": "C=CCn1c(SCCOC)nc2c(c1=O)C(C)(C)Cc1ccccc1-2 [CCG-102624]", "SK Expression (% control)": 30}
{"compound": "C=CCn1c(SCC(=O)OCC)nc2c(c1=O)C(C)(C)Cc1ccccc1-2 [1S-30398]", "SK Expression (% control)": 42}
{"compound": "C=CCn1c(SCc2cccc(OC)c2)nc2c(c1=O)C1(CCCCC1)Cc1ccccc1-2 [CCG-102485]", "SK Expression (% control)": 81}
{"compound": "C=CCn1c(SCCOC)nc2c(c1=O)C(C)(C)Cc1cc(OC)ccc1-2 [CCG-203576]", "SK Expression (% control)": 30}
{"compound": "C=CCn1c(SCc2ccc(NC(C)=O)cc2)nc2c(c1=O)C1(CCCCC1)Cc1ccccc1-2 [CCG-102491]", "SK Expression (% control)": 85}
{"compound": "C=CCn1c(SC)nc2c(c1=O)C1(CCCCC1)Cc1ccccc1-2 [CCG-102620]", "SK Expression (% control)": 62}
{"compound": "C=CCn1c(SCCOC)nc2c(c1=O)C(C)(C)c1ccccc1-2 [CCG-203572]", "SK Expression (% control)": 21}

Prompt: I would be grateful if you could share the reported SK Expression (% control) for C=CCn1c(SCc2ccc(OC)cc2)nc2c(c1=O)C1(CCCCC1)Cc1ccccc1-2 [CCG-102483] .
Response: 119

Prompt: I would be grateful if you could share the reported SK Expression (% control) for C=CCn1c(SCCc2ccc(OC)cc2)nc2c(c1=O)C1(CCCCC1)Cc1ccccc1-2 [CCG-102489] .
Response: 91

Prompt: I would be grateful if you could share the reported SK Expression (% control) for C=CCn1c(SCCOC)nc2c(c1=O)CC(C)c1ccccc1-2 (stereo not shown) [CCG-203574] .
Response: 80

Prompt: I would be grateful if you could share the reported SK Expression (% control) for C=CCn1c(OCC)nc2c(c1=O)C1(CCCCC1)Cc1ccccc1-2 [CCG-102622] .
Response: 43

Prompt: I would be grateful if you could share the reported SK Expression (% control) for C=CCn1c(SCCCC)nc2c(c1=O)C1(CCCCC1)Cc1ccccc1-2 [compound 575096] .
Response: 50
